Assay: Elimination t1/2 of Compound 1 in mice
Details: mouse, in vivo
PROPERTY: half-life

For `Cc1cn2c(nc1=O)O[C@H]1[C@H](O)[C@@H](CO)O[C@H]12` , what is its reported half-life?
1 to 2 h
